System: [^3 H]-GABA uptake
Test summary: in vitro inhibition of [3H]-GABA uptake, rat cortical tissue homogenate (method of Fjalland)
Format: biochemical, Male wistar rat
Condition summary: 40 mM tris HCl pH 7.5, 60 minutes at 30° C.
Where a name gives a salt, the structure may show the parent alone.
Measured IC50 accompanies every entry in the list below.
Please state the figure in µM; there is no need to write the unit.

Worked cases, answers included:
Fill in: IC50 of O=C(O)[C@@H]1CCCN(CCOc2cccc(-c3ccccc3)c2)C1 [Example 4, hydrochloride] is ___
5.6

Also need O=C(O)[C@@H]1CCCN(CCOc2ccccc2)C1 [Example 1, hydrochloride] , thanks.
64

Also need O=C(O)[C@@H]1CCCN(CCCCOc2ccccc2)C1 [Example 2, hydrochloride] , thanks.
24

Also need O=C(O)[C@@H]1CCCN(CCOc2ccccc2Cc2ccccc2)C1 [Example 3, hydrochloride] , thanks.
6.7

# input for lookup
Fill in: IC50 of O=C(O)[C@@H]1CCCN(CCOc2ccccc2-c2ccccc2)C1 [Example 5, hydrochloride] is ___
5.6
